- system_name: TrkB (Homo sapiens, UniProt Q16620)
- Construct: purchased Upstate 14-507M
- Sequence (Q16620 526-822 limits assumed): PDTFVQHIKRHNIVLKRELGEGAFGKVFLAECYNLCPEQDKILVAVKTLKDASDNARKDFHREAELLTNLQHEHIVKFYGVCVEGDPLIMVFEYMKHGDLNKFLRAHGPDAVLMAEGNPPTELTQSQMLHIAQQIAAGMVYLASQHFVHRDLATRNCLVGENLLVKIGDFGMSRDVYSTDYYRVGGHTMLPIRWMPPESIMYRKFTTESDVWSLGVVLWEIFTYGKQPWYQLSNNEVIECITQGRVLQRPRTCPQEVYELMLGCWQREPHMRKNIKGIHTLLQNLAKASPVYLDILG
- procedure_text: Trk B Fluorescence Polarization Kinase Assay
- Assay type: biochemical
- applied_conditions: 150 uM ATP, 50 nM TrkB; uncertainty ±10%
measured_endpoint: IC50 (µM)

1) COc1cc2ncnc(N3CCC(COC(=O)Nc4ccc(C(C)C)cc4)CC3)c2cc1OC	0.8
2) COc1cc2ncnc(N3CCC(NC(=O)Nc4ccc(Oc5ccccc5)cc4)C3)c2cc1OC (centres unmarked)	2.74
3) COc1cc2ncnc(N3CCC(OC(=O)Nc4ccc(OC5CCC5)nc4)CC3)c2cc1OC	8.6
4) COc1cc2ncnc(N3CCCC(NC(=O)Nc4ccc(C(C)C)cc4)C3)c2cc1OC (centres unmarked)	0.3
5) COc1cc2ncnc(N3CCC(OC(=O)Nc4ccc(OC(C)C)cc4)CC3)c2cc1OC	5.8
6) CC(C)c1ccc(NC(=O)OC2CCN(c3ncnc4ccccc34)C2)cc1 (centres unmarked)	5.5
7) COc1cc2ncnc(N3CCC(NC(=O)Nc4ccc(OC5CCCC5)nc4)C3)c2cc1OC (centres unmarked)	11.8
